experiment: M. tuberculosis growth inhibition, HTS (AID 449762);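 note: bacterial growth assessed after seven days of incubation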; settings: M. tuberculosis H37Rv growth inhibition, 7H9 media; at 25 µM; active compounds read high
Screen size: about 330,000 compounds; about 1,900 (0.58%) were called active. About 4% were inconclusive and are not listed. Not all results are given here. Results with a measured potency or affinity are listed apart.
In this section, each of the compounds is paired with its reported inhibition.
Parameter: inhibition (%)

O=C(N/N=C/C=C/c1ccc([N+](=O)[O-])cc1)c1cccs1 = 3.01
CCCCN(C(=O)CC1CCCC1)c1c(N)n(CCCC)c(=O)[nH]c1=O = -14.4
O=c1cc(-c2ccccc2Cl)oc2cccc(O)c12 = 1.24
CNC1=C(N(C(C)=O)c2ccc(Br)cc2)C(=O)c2ccccc2C1=O = -2.3
COC(=O)c1ccc(NC(=O)CSc2nnc(C)n2CC2CCCO2)cc1 (stereo unspecified) = -1.12
Cn1c(C(=O)N2CCCC(C(=O)NCCCSC3CCCCC3)C2)cc2sccc21 (stereo unspecified) = 67.2
CC(=O)N(C1=C(N)C(=O)c2ccccc2C1=O)c1ccccc1 = -1.88
COc1ccccc1Nc1ccc(C(=O)NC2CCCCC2)cn1 = -2.47
CN(CC(=O)NCCc1ccc(F)cc1)Cc1ccccc1 = -0.22
NC(=O)COc1ccc(Cc2ncc(C(F)(F)F)cc2Cl)cc1 = 5.51
Cc1occc1-c1nnc(SCC(=O)NCCc2ccccc2)n1Cc1ccccc1 = 1.99
Cc1noc(C)c1COC(=O)c1ccc2c(c1)S(=O)(=O)c1ccccc1C2=O = -4.63
O=C(O)c1ccc(N/N=C/C2=C(N3CCOCC3)C(=C\c3ccccc3)/CC2)cc1 = 0.66
CCC(=O)N1c2ccc(S(=O)(=O)CCC(=O)N3CCN(c4ccccc4F)CC3)cc2CC1C (stereo unspecified) = -7.68
Cc1occc1-c1nnc(SCC(=O)Nc2ccccn2)o1 = 36.7
C=CCNC(=S)N/N=C(\C)c1cccc(NC(C)=O)c1 = -1.22
